# System: Candida albicans
# PROTOCOL_TEXT: anti-Candida albicans growth inhibition test in liquid medium (96-well microplates)
# Assay type: cell-based
# EXPERIMENTAL_PARAMETERS: fold relative to heliomycin
// reported Activity C.a. (relative activity in relation to heliomycin) for each item listed

The cases that follow already have their Activity C.a. (relative activity in relation to heliomycin) on record.
DKLIGSCVWGAVNYTSDCNGECKRRGYKGGHCGSFANVNCWCER [pEM7, peptide derived from heliomycin]
4-8
NKLIGSCVWGAVNYTSDCNGECKRRGYKGGHCGSFINVNCWCQT [pEM62, peptide derived from heliomycin]
3-6

Next sequence, please.
State its Activity C.a. (relative activity in relation to heliomycin) on Candida albicans: DKLIGSCVWGAVNYTSDCNGECKRRGYKGGHCGSFINVNCWCET [pEM22, peptide derived from heliomycin]
1-2
